assay: Plasma protein binding in human; format: ADME, cell-free; settings: read-out: PPB (converted)
Parameter: fraction unbound. Scope: all listed entries.
METRIC: fraction unbound

1. O=C(C1CC(F)(F)C1)N1CCc2nc(C#Cc3ccccc3)sc2C1 :: 0.011
2. CN1CCc2nc(C#Cc3ccccc3)sc2C1 :: 0.035
3. CN1CCc2nc(C#Cc3ccccc3)sc2C1=O :: 0.033
4. O=C(N1CCCC1)N1CCc2nc(C#Cc3ccccc3)sc2C1 :: 0.024

----------
molecular target: Metabotropic glutamate receptor 5 (Homo sapiens); experiment: Negative allosteric modulation of human mGlu5 receptor expressed in HEK293 cells assessed as inhibition of L-glutamate-induced activity after 1 hr by FLIPR assay
Sequence (P41594 whole entry): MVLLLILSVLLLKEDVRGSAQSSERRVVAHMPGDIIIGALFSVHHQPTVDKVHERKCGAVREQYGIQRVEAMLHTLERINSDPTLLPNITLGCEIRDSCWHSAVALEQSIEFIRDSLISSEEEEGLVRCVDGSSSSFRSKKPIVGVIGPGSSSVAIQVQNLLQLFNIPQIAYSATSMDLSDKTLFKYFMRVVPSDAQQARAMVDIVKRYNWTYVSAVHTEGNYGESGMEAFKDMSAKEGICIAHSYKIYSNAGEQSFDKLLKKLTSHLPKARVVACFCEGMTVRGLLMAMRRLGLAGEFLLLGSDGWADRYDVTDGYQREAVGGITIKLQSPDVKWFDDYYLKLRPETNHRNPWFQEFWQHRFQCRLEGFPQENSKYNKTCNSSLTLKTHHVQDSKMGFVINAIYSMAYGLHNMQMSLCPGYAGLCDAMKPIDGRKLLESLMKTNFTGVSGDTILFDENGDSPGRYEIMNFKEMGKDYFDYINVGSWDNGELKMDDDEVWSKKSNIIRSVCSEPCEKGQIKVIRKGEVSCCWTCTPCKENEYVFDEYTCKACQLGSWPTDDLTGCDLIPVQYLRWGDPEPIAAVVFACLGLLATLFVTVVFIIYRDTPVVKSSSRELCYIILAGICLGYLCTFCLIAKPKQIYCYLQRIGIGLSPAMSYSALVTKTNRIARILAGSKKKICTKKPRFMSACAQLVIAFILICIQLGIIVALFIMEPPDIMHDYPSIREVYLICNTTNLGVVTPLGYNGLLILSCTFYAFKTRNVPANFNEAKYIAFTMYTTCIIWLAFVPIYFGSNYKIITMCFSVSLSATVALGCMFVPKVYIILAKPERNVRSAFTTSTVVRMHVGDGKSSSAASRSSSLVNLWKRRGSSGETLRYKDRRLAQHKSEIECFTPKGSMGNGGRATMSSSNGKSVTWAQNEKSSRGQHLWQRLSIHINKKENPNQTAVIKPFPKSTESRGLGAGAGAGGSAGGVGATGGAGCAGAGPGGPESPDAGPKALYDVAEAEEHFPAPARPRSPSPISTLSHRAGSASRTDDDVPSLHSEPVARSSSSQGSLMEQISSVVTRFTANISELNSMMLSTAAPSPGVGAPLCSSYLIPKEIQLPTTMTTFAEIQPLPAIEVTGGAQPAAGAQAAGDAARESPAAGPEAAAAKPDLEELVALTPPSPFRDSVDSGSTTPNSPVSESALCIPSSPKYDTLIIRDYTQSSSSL
pIC50: −log10 of the molar value.
Parameter: pIC50. Scope: all listed entries.
METRIC: pIC50

1) O=C(C1CCC(F)(F)CC1)N1CCc2nc(C#Cc3ccccc3)sc2C1 :: < 5.00
2) CC1CCC(C(=O)N2CCc3nc(C#Cc4ccccc4)sc3C2)CC1 (stereo not drawn) :: < 5.00
3) O=C([C@H]1CC2CCC1C2)N1CCc2nc(C#Cc3ccccc3)sc2C1 (stereo partly drawn) :: < 5.00
4) O=S(=O)(N1CCCCC1)N1Cc2nc(C#Cc3ccccc3)sc2C1 :: < 5.00
5) CC(=O)N1CCc2nc(C#Cc3ccccc3)sc2C1 :: 7.05
6) CN1CCc2nc(C#Cc3ccccc3)sc2C1 :: < 5.00
7) O=C(c1cccc(Cl)c1)N1CCc2nc(C#Cc3ccccc3)sc2C1 :: < 5.00
8) O=C(c1cccc(C(F)(F)F)c1)N1CCc2nc(C#Cc3ccccc3)sc2C1 :: < 5.00
9) Fc1cccc(C#Cc2nc3c(s2)CN(C2CCOC2)CC3)c1 (stereo not drawn) :: 6.40
10) Cc1cccc(C(=O)N2CCc3nc(C#Cc4ccccc4)sc3C2)n1 :: < 5.00
11) O=C(C1CC(F)C1)N1CCc2nc(C#Cc3ccccc3)sc2C1 (stereo not drawn) :: < 5.00
12) O=C1NCCc2nc(C#Cc3ccccc3)sc21 :: < 5.00
13) O=S(=O)(N1CCOCC1)N1CCc2nc(C#Cc3ccccc3)sc2C1 :: 7.89

----------
tested on: Liver microsomes; test: Metabolic stability in human liver microsomes assessed as GSH adduct formation after 60 mins by LC-MS/MS analysis; format: ADME, Microsome; settings: 1 h
METRIC: Stability

1. O=C(C1CC(F)(F)C1)N1CCc2nc(C#Cc3ccccc3)sc2C1 :: Stable
2. CN1CCc2nc(C#Cc3ccccc3)sc2C1 :: Stable
3. O=C(c1cnc(C#Cc2ccccc2)s1)N1CCCCC1 :: Unstable
4. CN1CCc2nc(C#Cc3ccccc3)sc2C1=O :: Unstable

----------
test system: Liver microsomes; assay: Intrinsic clearance in rat liver microsomes; assay type: ADME, Microsome
Parameter: CLH. Scope: all listed entries.
METRIC: CLH (mL/min)

1) O=C(N1CCCC1)N1CCc2nc(C#Cc3ccccc3)sc2C1 :: 49
2) CN1CCc2nc(C#Cc3ccccc3)sc2C1 :: 88
3) CN1CCc2nc(C#Cc3ccccc3)sc2C1=O :: 52
4) O=C(C1CC(F)(F)C1)N1CCc2nc(C#Cc3ccccc3)sc2C1 :: 7.6

----------
Parameter: IC50. Scope: all listed entries.
biological target: Metabotropic glutamate receptor 5 (Homo sapiens, UniProt P41594); assay: Negative allosteric modulation of human mGlu5 receptor expressed in HEK293 cells assessed as inhibition of L-glutamate-induced activity after 1 hr by FLIPR assay
METRIC: IC50

1) O=C1NCCc2nc(C#Cc3cccc(Cl)c3)sc21 :: > 10 µM
2) O=C(C1CCCCO1)N1CCc2nc(C#Cc3ccccc3)sc2C1 (configuration not stated) :: > 10 µM
3) Cc1cccc(C(=O)N2CCc3nc(C#Cc4ccccc4)sc3C2)c1 :: > 10 µM
4) O=C1NCCc2nc(C#Cc3cccnc3)sc21 :: > 10 µM
5) O=C1NCCc2nc(C#Cc3cccc(F)c3)sc21 :: > 10 µM
6) O=C(C1CCCC1)N1CCc2nc(C#Cc3ccccc3)sc2C1 :: > 10 µM
7) O=S(=O)(C1CCCCC1)N1CCc2nc(C#Cc3ccccc3)sc2C1 :: 0.48 µM
8) O=C(C1CCC1)N1CCc2nc(C#Cc3ccccc3)sc2C1 :: 0.37 µM
9) CCCCN1CCc2nc(C#Cc3ccccc3)sc2C1 :: > 10 µM
10) Cc1cccc(C#Cc2nc3c(s2)C(=O)NCC3)c1 :: > 10 µM
11) O=C(C1CC(F)(F)C1)N1CCc2nc(C#Cc3cccc(F)c3)sc2C1 :: > 10 µM
12) O=C1c2sc(C#Cc3ccccc3)nc2CN1C1CCCC1 :: > 10 µM

----------
Parameter: Emax. Scope: all listed entries.
target: Metabotropic glutamate receptor 5 (Homo sapiens, UniProt P41594); test: Positive allosteric modulation of human mGlu5 receptor expressed in HEK293 cells assessed as potentiation of L-glutamate-induced activity after 1 hr by FLIPR assay relative to control; type: cell-based
Sequence (P41594 21-1212 limits assumed): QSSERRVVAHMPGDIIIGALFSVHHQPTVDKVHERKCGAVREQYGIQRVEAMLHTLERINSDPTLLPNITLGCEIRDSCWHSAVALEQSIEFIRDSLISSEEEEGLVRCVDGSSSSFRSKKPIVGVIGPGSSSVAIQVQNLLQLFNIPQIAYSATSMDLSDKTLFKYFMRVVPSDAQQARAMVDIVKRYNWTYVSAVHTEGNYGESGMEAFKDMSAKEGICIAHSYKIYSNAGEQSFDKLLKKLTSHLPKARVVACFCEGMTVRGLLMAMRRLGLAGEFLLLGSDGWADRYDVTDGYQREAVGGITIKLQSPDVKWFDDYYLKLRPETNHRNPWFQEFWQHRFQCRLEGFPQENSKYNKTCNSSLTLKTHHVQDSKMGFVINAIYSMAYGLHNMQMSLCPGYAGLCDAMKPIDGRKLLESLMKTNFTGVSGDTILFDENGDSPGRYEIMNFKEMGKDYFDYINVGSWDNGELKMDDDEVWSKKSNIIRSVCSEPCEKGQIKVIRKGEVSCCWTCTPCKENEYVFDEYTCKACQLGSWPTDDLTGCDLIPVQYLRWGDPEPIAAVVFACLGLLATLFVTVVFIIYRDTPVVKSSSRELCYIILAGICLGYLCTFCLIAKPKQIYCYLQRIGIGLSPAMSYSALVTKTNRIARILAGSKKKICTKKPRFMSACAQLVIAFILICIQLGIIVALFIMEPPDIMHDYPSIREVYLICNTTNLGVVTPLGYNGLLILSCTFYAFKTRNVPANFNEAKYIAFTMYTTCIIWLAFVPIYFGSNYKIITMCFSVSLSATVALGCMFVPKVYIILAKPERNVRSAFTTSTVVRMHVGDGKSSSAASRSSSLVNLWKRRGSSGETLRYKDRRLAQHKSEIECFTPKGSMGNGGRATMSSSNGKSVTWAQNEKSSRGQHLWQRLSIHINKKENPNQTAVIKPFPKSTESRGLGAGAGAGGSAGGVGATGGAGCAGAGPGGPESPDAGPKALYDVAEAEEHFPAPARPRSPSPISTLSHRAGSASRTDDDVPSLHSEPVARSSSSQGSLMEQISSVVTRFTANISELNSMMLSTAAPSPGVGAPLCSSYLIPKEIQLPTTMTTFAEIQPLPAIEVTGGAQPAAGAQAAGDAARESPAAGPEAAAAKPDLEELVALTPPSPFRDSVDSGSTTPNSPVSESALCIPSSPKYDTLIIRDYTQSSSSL
METRIC: Emax (%)

1. Fc1cccc(C#Cc2nc3c(s2)CN(C2CCOC2)CC3)c1 (stereo unspecified) :: -47
2. CC(=O)N1CCc2nc(C#Cc3ccccc3)sc2C1 :: -18
3. O=C1NCCc2nc(C#Cc3cccc(Cl)c3)sc21 :: 120
4. O=C(C1CCCO1)N1CCc2nc(C#Cc3ccccc3)sc2C1 (stereo unspecified) :: 89
5. O=C(C1CCCCO1)N1CCc2nc(C#Cc3ccccc3)sc2C1 (stereo unspecified) :: 100
6. Fc1cccc(C#Cc2nc3c(s2)CN(C2CCCC2)CC3)c1 :: -44

----------
molecular target: Metabotropic glutamate receptor 5 (Homo sapiens, UniProt P41594); test: Positive allosteric modulation of human mGlu5 receptor expressed in HEK293 cells assessed as potentiation of L-glutamate-induced activity after 1 hr by FLIPR assay relative to control; assay type: cell-based
Parameter: Emax. Scope: all listed entries.
METRIC: Emax (%)

1. C(#Cc1nc2c(s1)CN(C1CCCCC1)CC2)c1ccccc1 :: 19
2. Fc1cccc(C#Cc2nc3c(s2)CN(C2CCC2)CC3)c1 :: -40
3. CN(C)S(=O)(=O)N1CCc2nc(C#Cc3ccccc3)sc2C1 :: -6
4. CC(C)CN1CCc2nc(C#Cc3ccccc3)sc2C1 :: -48
5. COC1CC(C(=O)N2CCc3nc(C#Cc4ccccc4)sc3C2)C1 (configuration not stated) :: 43
6. O=C1NCCc2nc(C#Cc3ccccc3F)sc21 :: 320
7. CN1CCC(C(=O)N2CCc3nc(C#Cc4ccccc4)sc3C2)CC1 :: 70
8. CC1CCCC(C(=O)N2CCc3nc(C#Cc4ccccc4)sc3C2)C1 (configuration not stated) :: 260
9. O=C1NCCc2nc(C#Cc3ccccc3)sc21 :: 243
10. CCC(=O)N1CCc2nc(C#Cc3ccccc3)sc2C1 :: -17
11. CCN1CCc2nc(C#Cc3ccccc3)sc2C1 :: -6
12. O=S(=O)(N1CCCCC1)N1Cc2nc(C#Cc3ccccc3)sc2C1 :: 89
13. O=C(N1CCc2nc(C#Cc3ccccc3)sc2C1)N1CC(F)C1 :: 27
14. Cc1cccc(C(=O)N2CCc3nc(C#Cc4ccccc4)sc3C2)c1 :: 170
15. O=C([C@H]1CC2CCC1C2)N1CCc2nc(C#Cc3ccccc3)sc2C1 (some centres not stated) :: 280
16. CC(C)S(=O)(=O)N1CCc2nc(C#Cc3ccccc3)sc2C1 :: -4
17. CCN1CCc2nc(C#Cc3cccc(F)c3)sc2C1 :: -2
18. CCCCN1CCc2nc(C#Cc3ccccc3)sc2C1 :: 32
19. O=C(c1cccc(C(F)(F)F)c1)N1CCc2nc(C#Cc3ccccc3)sc2C1 :: 170
20. O=S(=O)(N1CCOCC1)N1CCc2nc(C#Cc3ccccc3)sc2C1 :: 1.5
21. Cc1cc(C(=O)N2CCc3nc(C#Cc4ccccc4)sc3C2)no1 :: 71
22. COc1ccccc1C#Cc1nc2c(s1)C(=O)NCC2 :: 44
23. O=C(N1CCc2nc(C#Cc3ccccc3)sc2C1)N1CCC(F)(F)C1 :: 170
24. O=C(C1CC(F)(F)C1)N1CCc2nc(C#Cc3cccc(F)c3)sc2C1 :: 72
25. O=C(N1CCc2nc(C#Cc3ccccc3)sc2C1)N1CC(F)(F)C1 :: 94
26. O=C(N1CCCCC1)N1CCc2nc(C#Cc3ccccc3)sc2C1 :: 120
27. O=S(=O)(N1CCCC1)N1CCc2nc(C#Cc3ccccc3)sc2C1 :: -9
28. O=S(=O)(C1CC1)N1CCc2nc(C#Cc3ccccc3)sc2C1 :: -12
29. O=C(N1CCC(F)(F)CC1)N1CCc2nc(C#Cc3ccccc3)sc2C1 :: 100
30. CC1CC(C(=O)N2CCc3nc(C#Cc4ccccc4)sc3C2)C1 (configuration not stated) :: 120
31. O=C(N1CCCC1)N1CCc2nc(C#Cc3ccccc3)sc2C1 :: 180
32. O=C(C1CC(F)(F)C1)N1CCc2nc(C#Cc3ccccc3)sc2C1 :: 89
33. N#Cc1cccc(C(=O)N2CCc3nc(C#Cc4ccccc4)sc3C2)c1 :: 150
34. O=C(CC1CCOCC1)N1CCc2nc(C#Cc3ccccc3)sc2C1 :: 45
35. O=C(C1CCOCC1)N1CCc2nc(C#Cc3ccccc3)sc2C1 :: 120
36. O=C(c1cccc(Cl)c1)N1CCc2nc(C#Cc3ccccc3)sc2C1 :: 170
37. O=C1NCCc2nc(C#Cc3cccc(F)c3)sc21 :: 310

// data source = ChEMBL document CHEMBL2401712
